- System: MCF7 breast
- procedure.text: NCI tumour cell line growth inhibition, 48 h
quantity.measured: TGI

- compound: "N[C@@H](CCC(=O)NCP(=O)(O)O)C(=O)O"
  TGI: "> 100 µM"
- compound: "CC(C)c1cc2c(cc1S(=O)(=O)O)[C@@]1(C)CCC[C@@](C)(C(=O)O)C1CC2 (stereo partly specified)"
  TGI: "> 100 µM"
- compound: "CCCCCCCCCCCCC(O)c1ccc(C#CCCCCCCCCCO)o1 (stereo unspecified)"
  TGI: "42.3 µM"
- compound: "Nc1ccc(C2=NNC(=O)Cc3cc4c(cc32)OCCO4)cc1Cl"
  TGI: "> 50 µM"
- compound: "COc1cc(/C(C#N)=C/c2nc3c(N4CCOCC4)nc(Cl)nc3n2C)cc(OC)c1OC"
  TGI: "> 32.5 µM"

Exercise: Given the compound Cc1cccc(Cn2c3c(c4cc(O)ccc42)C(=O)c2ccccc2C3=O)c1 , what is its reported TGI?
Solution: 98.1 µM

Exercise: // next record C(=C(c1ccc(OC2CCCCO2)cc1)c1ccc(OC2CCCCO2)cc1)c1ccccc1 (stereo unspecified)
Solution: 1.43 µM

Exercise: // next record Cn1c2ccc3cc2c(=S)c2cc(ccc21)OCCOCCOCCOCCOCCOCCO3
Solution: > 10 µM

----------
- Test system: NCI-H226 lung
- procedure.text: NCI tumour cell line growth inhibition, 48 h; in the data active = GI50 below about 0.43 µM; inactive = the rest
Lab note: assign the record to one of active, inactive

- molecule: "COc1ccc(-c2cn[nH]c2-c2cc(OC)c(OC)c(OC)c2)cc1"
  assigned.class: "active"
- molecule: "O=C(Nc1ccc(Oc2ccc(Nc3nc4ccccc4s3)cc2)cc1)Nc1ccc(Cl)c(C(F)(F)F)c1"
  assigned.class: "inactive"
- molecule: "N#CC(C#N)=C/C=C(\\Sc1nc2ccccc2s1)c1ccc(Cl)cc1"
  assigned.class: "inactive"
- molecule: "Cc1csc(-c2nnc(Nc3ccc(Oc4ncccc4-c4ccnc(N)n4)cc3)c3ccccc23)c1"
  assigned.class: "inactive"
- molecule: "O=C(/C(=C/c1ccc([N+](=O)[O-])cc1)SCc1ccccc1)c1ccc(Cl)cc1"
  assigned.class: "inactive"
- molecule: "O=C(CCCSc1nc(-c2ccccc2)cc(-c2ccccc2)n1)NO"
  assigned.class: "inactive"
- molecule: "C[C@]12CCC3c4ccc(O)cc4CCC3C1CC[C@@]2(O)CNC(=O)/C=C/c1ccc(O)c(O)c1 (stereo partly drawn)"
  assigned.class: "inactive"
- molecule: "CCCCCCCCCCCCC(O)c1ccc(C#CCCCCCCCCCO)o1 (stereo not drawn)"
  assigned.class: "inactive"

Exercise: # lookup: test call for Cn1ccc2c3c(Oc4ccc(NC(N)=O)cc4)ccnc3ccc21
Solution: inactive

Exercise: // next record Cc1nnc(NC(=O)c2nc(S(=O)(=O)Cc3ccc(F)cc3)ncc2Cl)s1
Solution: inactive

----------
- System: SF-295 CNS
- procedure.text: NCI tumour cell line growth inhibition, 48 h
TGI by entry:

Field: example entries. Status: answers known.
- compound: "O=C(N/N=C/c1ccc(Cl)cc1)c1c(Cl)c(Cl)c(Cl)c(Cl)c1-c1nc2ccccc2[nH]1"
  TGI: "> 100 µM"
- compound: "C=CC1(CC/C(=C\\[N+](=O)[O-])c2ccc(OC)c(OC)c2)OCC(C)(C)CO1"
  TGI: "53.1 µM"
- compound: "O=C(CCCSc1nc(-c2ccccc2)cc(-c2ccccc2)n1)NO"
  TGI: "6.98 µM"

Exercise: Given the compound Nc1nccc(-c2c[nH]c3cc(Br)ccc23)n1 , what is its reported TGI?
Solution: > 100 µM

Exercise: // next record C/C(CCn1[nH]c(=O)ccc1=O)=N\NC(=O)C(=O)NN
Solution: > 100 µM

Exercise: // next record COc1ccc(OC)c(N2CC(N)C2=O)c1 (stereo unspecified)
Solution: > 100 µM
